Test system: morningglory
TEST DESCRIPTION: Test C postemergence
Format: in vivo, Ipomoea coccinea
MEASUREMENT CONTEXT: Postemergence, 62 g ai/ha; scale 0 to 100 (0 no effect, 100 complete control)
MEASUREMENT LABEL: Plant response rating, Morningglory
Answer field: number only, no words.

1) N#Cc1cnn(-c2c(C#N)cccc2Oc2ncc(F)cn2)c1 80

Problem: What reported Plant response rating, Morningglory corresponds to `N#Cc1cn(-c2c(Br)cccc2Oc2ncc(Cl)cn2)nn1` on morningglory?
Result: 60

====

System: large (Lg) crabgrass
TEST DESCRIPTION: Test A postemergence
Assay type: in vivo, Digitaria sanguinalis
MEASUREMENT CONTEXT: 500 g ai/ha, 0 to 100 scale, 0 no effect, 100 complete control
Source text: […]
MEASUREMENT LABEL: Plant response rating, Crabgrass, Large
Answer field: number only, no words.

Study these solved cases before continuing.
1. Brc1cnc(Oc2ccccc2-n2cc(Br)c(Br)n2)nc1 0
2. O=Cc1cccc(Oc2ncc(Cl)cn2)c1-n1cc(Br)cn1 0

Problem: // returns reported Plant response rating, Crabgrass, Large for input `Fc1cnc(Oc2ccccc2-n2cc(Cl)cn2)nc1`
Result: 90

Problem: // returns reported Plant response rating, Crabgrass, Large for input `Brc1cnc(Oc2ccccc2-n2cc(Br)cn2)nc1`
Result: 90

Problem: // returns reported Plant response rating, Crabgrass, Large for input `CC(C)(C)c1ccn(-c2ccccc2Oc2ncc(Cl)cn2)n1`
Result: 40
